assay_text: Caspase-3/7 induction in HepG2 cells by small molecules, qHTS assay (AID 1346978); note: nearly all actives have a fitted effect of over 15% in size
test_settings: HepG2 caspase-3/7 activation, Caspase-Glo luminescence, 17 h; series mostly up to 92.4 µM
Inconclusive results are not listed. The source made the active and inactive calls. Calls come from the whole dose curve; as a rule, active = well fitted activation curve with a large enough effect in the repeat runs; inconclusive = weak or mixed curves; inactive = flat fitted curve, though single readings scatter.
Permitted responses: class 1 = active, class 0 = inactive

Here's what some known entries look like.
compound	assigned_class
CCC(CC)(CC(=O)Nc1cccc(/C=C/c2nc(C3CCC3)cs2)c1)C(=O)O	class 0
CCCC(=O)OCCc1ccccc1	class 0
CCCc1ccc(OCC(=O)N2CCN(C(=O)COc3ccc(CCC)cc3OC)CC2)c(OC)c1	class 0
Cc1nc2n(c(=O)c1CCN1CCC(c3noc4cc(F)ccc34)CC1)CCCC2	class 0

Turning now to a further record.
[in] Hi, do you know how CC(C)(C)c1ccc(C(O)CCCN2CCC(C(O)(c3ccccc3)c3ccccc3)CC2)cc1 (stereo not given) came out in this test?
[out] class 1
